// data source = patent US20210308211A1

# Tested system: Recombinant bovine HSC70 (Stressgen) (bovine) (UniProt P19120)
# Sequence (P19120 whole entry): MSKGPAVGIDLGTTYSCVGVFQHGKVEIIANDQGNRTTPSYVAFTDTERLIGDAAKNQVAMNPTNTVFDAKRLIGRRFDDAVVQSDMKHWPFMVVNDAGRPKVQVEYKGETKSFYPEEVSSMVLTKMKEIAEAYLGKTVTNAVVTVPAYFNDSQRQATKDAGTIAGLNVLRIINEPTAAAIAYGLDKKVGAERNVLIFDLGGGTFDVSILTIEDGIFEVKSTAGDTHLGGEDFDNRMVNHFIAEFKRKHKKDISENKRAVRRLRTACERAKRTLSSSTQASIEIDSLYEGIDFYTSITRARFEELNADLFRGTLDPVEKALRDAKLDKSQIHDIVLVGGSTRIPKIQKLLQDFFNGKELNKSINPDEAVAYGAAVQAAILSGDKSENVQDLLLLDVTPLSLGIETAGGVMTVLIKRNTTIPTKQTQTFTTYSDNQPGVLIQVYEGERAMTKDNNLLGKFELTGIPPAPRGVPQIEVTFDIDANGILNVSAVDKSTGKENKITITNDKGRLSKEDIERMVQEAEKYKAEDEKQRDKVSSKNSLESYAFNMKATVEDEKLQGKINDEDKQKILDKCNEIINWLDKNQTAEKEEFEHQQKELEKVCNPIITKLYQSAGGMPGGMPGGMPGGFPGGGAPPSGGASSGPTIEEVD
# Test details: SPR, BIAcore 3000; HSC70 immobilised, peptide injected; 1:1 Langmuir fit; row for analyte at 12.5 µM
Non-standard residues stand in square brackets, D forms with d. No end group written: not given here. Met(O) = CS(=O)CC[C@H](N)C(=O)O; pS = N[C@@H](COP(=O)(O)O)C(=O)O
Reported endpoint: Kd (µM)

A: RIHMVYSKR[pS]GKPRGYAFIEY [P140 peptide (SEQ ID NO: 1 in which serine at position 10 is phosphorylated; SEQ ID NO: 4)]
B: RIH[Met(O)]VYSKR[pS]GKPRGYAFIEY
# return whichever of A and B has the smaller Kd Write the label of whichever entry you select.
B
(B: 1.91 µM, A: 6.94 µM)
